Form field: hydrophobic index (φ0) (one value per entry).
- Assay: Experimental lipophilicity by RP-TLC (RM0, logPTLC, hydrophobic index)
- Particulars: φ0 = −RM0/b
Observable: hydrophobic index (φ0)

Molecule: C=C(C)[C@@H]1CC[C@]2(COC(=O)c3cn(CCCOC4=C(Cl)C(=O)c5ccncc5C4=O)nn3)CC[C@]3(C)C(CCC4[C@@]5(C)CC[C@H](O)C(C)(C)C5CC[C@]43C)C12 (some centres unmarked)
Meas Value: 79.81

Molecule: C=C(C)[C@@H]1CC[C@]2(COC(=O)c3cn(CCCOC4=C(Cl)C(=O)c5ccc(C)nc5C4=O)nn3)CC[C@]3(C)C(CCC4[C@@]5(C)CCC(=O)C(C)(C)C5CC[C@]43C)C12 (some centres unmarked)
Meas Value: 83.85

Molecule: C=C(C)[C@@H]1CC[C@]2(COC(=O)c3cn(CCCOC4=C(Cl)C(=O)c5cccnc5C4=O)nn3)CC[C@]3(C)C(CCC4[C@@]5(C)CC[C@H](OC(C)=O)C(C)(C)C5CC[C@]43C)C12 (some centres unmarked)
Meas Value: 84.76

Molecule: C=C(C)[C@@H]1CC[C@]2(COC(=O)c3cn(CCCO)nn3)CC[C@]3(C)C(CCC4[C@@]5(C)CC[C@H](O)C(C)(C)C5CC[C@]43C)C12 (some centres unmarked)
Meas Value: 82.62

Molecule: C=C(C)[C@@H]1CC[C@]2(COC(=O)c3cn(CCCO)nn3)CC[C@]3(C)C(CCC4[C@@]5(C)CC[C@H](OC(=O)CC)C(C)(C)C5CC[C@]43C)C12 (some centres unmarked)
Meas Value: 87.13

Molecule: C=C(C)[C@@H]1CC[C@]2(COC(=O)c3cn(CCCO)nn3)CC[C@]3(C)C(CCC4[C@@]5(C)CC[C@H](OC(C)=O)C(C)(C)C5CC[C@]43C)C12 (some centres unmarked)
Meas Value: 86.06

Molecule: C=C(C)[C@@H]1CC[C@]2(COC(=O)c3cn(CCCOC4=C(Cl)C(=O)c5ccncc5C4=O)nn3)CC[C@]3(C)C(CCC4[C@@]5(C)CC[C@H](OC(=O)CC)C(C)(C)C5CC[C@]43C)C12 (some centres unmarked)
Meas Value: 88.21

Molecule: C=C(C)[C@@H]1CC[C@]2(COC(=O)c3cn(CCCOC4=C(Cl)C(=O)c5ccccc5C4=O)nn3)CC[C@]3(C)C(CCC4[C@@]5(C)CCC(=O)C(C)(C)C5CC[C@]43C)C12 (some centres unmarked)
Meas Value: 87.76

Molecule: C=C(C)[C@@H]1CC[C@]2(COC(=O)c3cn(CCCO)nn3)CC[C@]3(C)C(CCC4[C@@]5(C)CCC(=O)C(C)(C)C5CC[C@]43C)C12 (some centres unmarked)
Meas Value: 83.67

Molecule: C=C(C)[C@@H]1CC[C@]2(COC(=O)c3cn(CCCOC4=C(Cl)C(=O)c5ccccc5C4=O)nn3)CC[C@]3(C)C(CCC4[C@@]5(C)CC[C@H](OC(C)=O)C(C)(C)C5CC[C@]43C)C12 (some centres unmarked)
Meas Value: 85.11

Molecule: C=C(C)[C@@H]1CC[C@]2(COC(=O)c3cn(CCCOC4=C(Cl)C(=O)c5ccccc5C4=O)nn3)CC[C@]3(C)C(CCC4[C@@]5(C)CC[C@H](OC(=O)CC)C(C)(C)C5CC[C@]43C)C12 (some centres unmarked)
Meas Value: 86.18
